Taken from patent US8524730B2.

# study_target: UniProt Q13085
# assay_summary: Acetyl CoA carboxylase (ACC) activity inhibition test, human ACC1
# Format: biochemical
# condition_summary: 1 μmol/liter compound; read-out: Inhibition (%) by 1 μmol/liter Chemical, human ACC1
parameter: inhibition at 1 µM (%)

CCOc1cc(C(=O)N2CCC3(CC2)CC(=O)c2cc(-c4cnn(C)c4)ccc2O3)cc(OCC)c1-c1cccc(C(=O)O)c1 :: 100
Cc1nn(-c2ccc(C(=O)O)cc2)c2ccc(C(=O)N3CCC4(CC3)CC(=O)c3cc(-c5cnn(C)c5)ccc3O4)cc12 :: 99
CCOc1cc(C(=O)N2CCC3(CC2)CC(=O)c2cc(-c4cnn(C)c4)ccc2O3)cc(OCC)c1-c1ccc(C(=O)O)cc1 :: 99
CCOc1cc(C(=O)N2CCC3(CC2)CC(=O)c2cc(-c4ccc(C(N)=O)cn4)ccc2O3)cc(OCC)c1-c1ccc(C(=O)O)cc1 :: 98
CCOc1cc(C(=O)N2CCC3(CC2)CC(=O)c2cc(-c4cnn(C)c4)ccc2O3)cc(OCC)c1-c1cncc(C(=O)O)c1 :: 100
CCOc1cc(C(=O)N2CCC3(CC2)CC(=O)c2cc(-c4ccc(C(N)=O)cc4)ccc2O3)cc(OCC)c1-c1ccc(C(=O)O)cc1 :: 100
